Listing of recorded cytotoxicity at 70.5 h by entry.
- assay_comment: Human HepG2 cell viability assay in 384 well format
- Format: toxicity, cell-based
- Design: dose 125 nL, time 70.5 hour; concentration not given beside the values
- test_conditions: HepG2 cells, read-out: Inhibition
measurement_type: cytotoxicity at 70.5 h (%)

1. Cc1ncncc1C(=O)N1CCOC(C(=O)NC2CCCC2)C1 (configuration not stated) :: -1.76
2. Cc1cc(N(C)C)nc(C2CCCNC2)n1 (configuration not stated) :: -1.07
3. O=C(c1ccnnc1)N1C[C@@H]2CN(c3ncccn3)C[C@@H]2C1 :: 7.41
4. c1ccc(-c2nc3c(c(NCc4n[nH]c5c4CCC5)n2)CCNC3)cc1 :: 12.6
5. CCN(C(=O)c1nc2c(s1)CCCN2c1ccc(C)nn1)C(C)C :: -3.47
6. CCOCC(=O)N1CCC(c2cc3ncccc3c(O)n2)CC1 :: -6.58
7. CCN(C(C)=O)C(c1ccc(Cl)cc1)c1ccccn1 (configuration not stated) :: -14.6
8. O=C([C@@H]1COC[C@H]2CN(CC3CC3)C[C@H]21)N1CCC(F)CC1 :: 32.5
9. CN(C)C(=O)[C@@H]1C[C@H]2OCC[C@H]2N(CCOc2ccc(Cl)cc2)C1 :: -4.26
10. CC(C)c1nc(S(=O)(=O)N2CCSc3ccccc32)c[nH]1 :: -3.59
11. CCCc1cc(C(=O)N(Cc2cccnc2)C2CCCCC2)[nH]n1 :: -7.56
12. c1cnc(NCc2n[nH]c3c2CCN(Cc2ccncc2)C3)nc1 :: -6.35
13. COC(=O)c1ccc(C(=O)N2CCCC(Nc3ccc(F)cc3)C2)cc1 (configuration not stated) :: -1.16
14. O=C(COCc1nc(-c2ccncc2)no1)N1CCOCC1 :: -0.64
15. O=C(NCc1cccnc1N1CCCCC1)c1cccs1 :: -3.28
16. CCC1CN(C(=O)c2cccnc2O)CCC(=O)N1Cc1ccccc1 (configuration not stated) :: -3.15
17. CN1CCN(Cc2cnc3n2CCN(Cc2cccnc2)CC3)CC1 :: -1.41
18. Cc1nn(C)c(N2CCOCC2)c1CNCc1nccs1 :: -6.17
19. CS(=O)(=O)N1CCC(C(=O)N2CCC(Cn3cccn3)CC2)CC1 :: -12.3
20. COCCC1(CNC(=O)NCC2CCCN(C)C2)CCCC1 (configuration not stated) :: -1.2
21. CC1(C)Cc2nc(C(C)(C)C)ncc2C(NC(=O)Cc2nnn[nH]2)C1 (configuration not stated) :: 52.3
22. O=C1NCCCCC1NCc1csc(-c2ccc(F)cc2)n1 (configuration not stated) :: 6.14
23. COc1cccc(OCC2CCCN(C(=O)CCn3ccnc3)C2)c1 (configuration not stated) :: 11.7
24. COc1ccc(OCCN(C)C(=O)c2ccc(OC)cc2O)cc1 :: -9.58
25. Cc1oncc1C(=O)N[C@@H]1CN(Cc2ccoc2)C[C@@H]2CCCO[C@@H]21 :: 2.7
26. Fc1cccnc1N1CCCC(c2nccs2)C1 (configuration not stated) :: -5.3
27. CCCC(C#N)NC(=O)c1cc(Br)c2c(c1)OCCO2 (configuration not stated) :: -11.4

###

- assay_comment: Human HepG2 cell viability assay in 384 well format
- Format: toxicity, cell-based
- Set-up: dose 125 nL, time 70.5 hour; concentration not given beside the values
- test_conditions: HepG2 cells, read-out: Inhibition
The entries below come with measured cytotoxicity at 70.5 h values attached.
measurement_type: cytotoxicity at 70.5 h (%)

1) Cc1nc[nH]c1CN1CCN(C(=O)C2(C)CC2)[C@H]2CS(=O)(=O)C[C@H]21 :: -11.5
2) CN(CC(=O)N1CCCCC1Cn1cccn1)Cc1ccccc1 (centres undefined) :: 13
3) COc1cc(C(=O)NCCc2ccccc2OC)on1 :: -1.09
4) CCC(NC(=O)C1CCN(S(C)(=O)=O)CC1)c1ccc(OC)c(OC)c1 (centres undefined) :: -7.44
5) Cc1cccc(CN2CCO[C@@H]3CC(COc4ccccn4)C[C@H]32)n1 (some centres undefined) :: 5.17
6) CNC(=O)CN(C)Cc1ccc(F)cc1Cl :: -6.72
7) O=C(Nc1cccc(F)c1)N1CCN(Cc2noc(C3CC3)n2)CC1 :: -13.8
8) CNC(=O)[C@@H]1C[C@@H](n2cc(-c3ccc(CN4CC=CC4)cc3)nn2)CN1 :: -9.45
9) O=C(c1ccoc1)N1CC[C@H]2C[C@@H](c3nnc(C4CC4)o3)O[C@@H]2C1 :: -12
10) O=C1CC(c2ccncc2)C2(CCN(C(=O)NC3CC3)CC2)N1 (centres undefined) :: -1.57
11) CN(C(=O)c1ccccn1)c1nnc(C2CCOC2)s1 (centres undefined) :: -7.71
12) CC(=O)NCc1ccc(C(=O)N2CCCC2c2cnn(C)c2)s1 (centres undefined) :: -0.6
13) Nc1nccc(C2CCCN(CC3CC3)C2)n1 (centres undefined) :: -4.18
14) CN(C)c1ncc2c(n1)CN(C1CC(C)(C)NC(C)(C)C1)C2=O :: -6.77
15) Cc1nc2ccccc2nc1CN1CCCC(Cn2cncn2)C1 (centres undefined) :: -3.51
16) O=C(CC1NC(N2CCc3ccccc32)=NC1=O)Nc1ccccc1 (centres undefined) :: -5.06
17) O=C([C@H]1C[C@H]2OCC[C@H]2N(Cc2ccoc2)C1)N1CCCO1 :: -5.69
18) FC(F)(F)c1n[nH]c2c1CN(CCc1ccccn1)CC2 :: 13.8
19) CC(=O)N1CCC2(CCN(C(=O)c3ccc(C)c(C(F)(F)F)c3)CC2)C1 :: 37.6
20) Cn1cnnc1C1CCCN(C(=O)c2cc(-c3ccccc3)on2)C1 (centres undefined) :: -9.15
21) COc1ccc(N2CCN(C(=O)CCc3n[nH]c(C)n3)CC2=O)cc1 :: 15.6
22) CNC(=O)N1CCOC(C)(c2cnn(C)c2)C1 (centres undefined) :: -5.87
23) COCCCN1Cc2cccc(NC(=O)C(C)(C)C)c2C1 :: 31.1
24) O=S(=O)(NCC(c1ccsc1)N1CCCCCC1)c1cccs1 (centres undefined) :: -3.34
25) Cc1noc(C)c1CN(C)C(=O)c1ccc(O)nc1 :: -5.72
26) Cc1ccc(NCCCNC(=O)C2CC3(CCNCC3)CN2C)nc1 (centres undefined) :: -10.5
27) Cc1nc(C)n(CC2CCCN(CCC(=O)Nc3cc(C)on3)C2)n1 (centres undefined) :: -9.8
28) Cc1nc(C(=O)N(C)CC(F)(F)C(F)(F)F)c2ccccn12 :: -13.5
29) COCCn1ccc(=O)c(OCC(=O)Nc2cccc(C(C)=O)c2)c1C :: -4.4
30) COCCn1ccnc1C1CCCN(c2cnccn2)C1 (centres undefined) :: 15.5
31) CNc1snc(C)c1C(=O)N1CCCC(n2nc(C)cc2C)C1 (centres undefined) :: 23.1
32) CCOc1ccc(Cl)cc1C1CCCN1 (centres undefined) :: -16.4
33) Nc1cnc(-c2ccc(F)cc2Cl)cn1 :: 10.8
34) COCc1noc(CCNC(=O)c2ccc(C3CCCO3)s2)n1 (centres undefined) :: 8.28
35) Cn1cc(CN2C[C@@H]3COC[C@]3(CNC(=O)c3ccco3)C2)cn1 :: -10.1
36) CCN(CCN1CCCCCC1)C(=O)COc1cccnc1 :: 16
37) O=C(c1cc(-c2cn[nH]c2)nc2cc(F)ccc12)N1CCS(=O)(=O)CC1 :: -13.7
38) CN(C)c1nc2c(c(NCc3nnc4n3CCCCC4)n1)CCNC2 :: -6.97
39) CN1CCC(N(C)CCC(=O)N2CCC(OCc3ccccc3)CC2)C1 (centres undefined) :: 29.2

###

Reported cytotoxicity at 70.5 h values for a set of molecules
- assay_comment: Human HepG2 cell viability assay in 384 well format
- Type: toxicity, cell-based
- Set-up: dose 125 nL, time 70.5 hour; concentration not given beside the values
- test_conditions: HepG2 cells, read-out: Inhibition
measurement_type: cytotoxicity at 70.5 h (%)

1) O=C(c1ccc[nH]1)N1C[C@H]2CN(Cc3cccc(F)c3)C(=O)[C@H]2C1 :: -0.293
2) Fc1ccc(-c2cnc(CN3CCn4c(nnc4C4CC4)C3)o2)cc1 :: -9.29
3) Cc1cccc(N(C)Cc2cc(=O)n3oc(C)cc3n2)c1 :: 3.47
4) CS(=O)(=O)NC1CCN(C(=O)c2ccc3ccccc3c2)C1 (centres undefined) :: 5.82
5) Cn1cc(N2CC3(CCN(CC4CC4)CC3)OCC2=O)cn1 :: -12.5
6) OCCCN(CCn1cncn1)c1ccccc1 :: 30.6
7) CC(C)Nc1ccc2nc(C3CCNCC3)nn2c1 :: 9.18
8) COc1ccnc(N2CCN(C(=O)COCC(F)(F)F)CC2)n1 :: 13
9) Cn1cnnc1CNC(=O)c1ccc(Br)cc1O :: -3.54
10) Cc1cccc(C(=O)NCC2CCS(=O)(=O)C2)n1 (centres undefined) :: -1.5
11) Cc1ccc(Nc2cc(N3CCN(S(C)(=O)=O)CC3)nc(C)n2)cc1 :: -17.3
12) Cc1c[nH]c(CN2CCOC(c3ccc(Cl)cc3)C2)c(C)c1=O (centres undefined) :: -4.57
13) CC(C)c1nnc2n1CCN(C(=O)c1ccc(CN(C)C)cc1)C2 :: 3.04
14) CCc1cc(C(=O)N2CCc3c(ncn3CCc3ccccc3)C2)[nH]n1 :: 5.19
15) CN(Cc1cccs1)C(=O)CN1CCCC(Cn2cncn2)C1 (centres undefined) :: -5.28
16) Cc1cccc(C(=O)N2C[C@@H]3OCCN(CCN4CCCC4)[C@@H]3C2)n1 :: -7.28
17) N#Cc1cnc2ccccc2c1N1CCN(C(=O)C2CCC2)CC1 :: -1.5
18) CC(C)Oc1cccc(CNC(=O)NC(C)(C(=O)O)c2ccco2)c1 (centres undefined) :: -0.448
19) Cc1cc(C(=O)N2CCc3ncc(CN4CCCCC4)n3CC2)no1 :: 21.9
20) CCS(=O)(=O)N1CCN(C)c2ncccc2C1 :: -7.16
21) COCC(C)(C#N)NC(=O)COc1ccccc1Br (centres undefined) :: -0.405
22) Cc1nc(C2(NCc3cccc(F)c3F)CCCCC2)no1 :: -6.93
23) CN1CCN(CCOc2ccc(NC(=O)c3cnc[nH]3)cc2)CC1 :: 6.08
24) COc1ccc(C2CCCN2Cc2ccc(S(=O)(=O)N(C)C)o2)cc1 (centres undefined) :: -1.88
25) COc1ccc(C(N)c2cccc(S(C)(=O)=O)c2)cc1 (centres undefined) :: -1.22
26) c1ccc(NCc2cn3c(n2)CN(Cc2ccoc2)CC3)nc1 :: -0.75
27) O=C(c1ccnn1-c1ccc2ccccn12)N1CCOCC1 :: -3.59
28) CCc1cc(NCCc2ccc(O)cc2)n2nccc2n1 :: 2.9
29) CCc1ccccc1CN1CC[C@@]2(O)CCN(S(=O)(=O)N(C)C)C[C@H]2C1 :: -3.87
